biological target: HU (Mycoplasma gallisepticum, UniProt A0A0F6CKR5 1-99); assay: EMSA; 20 mM Tris-HCl pH 8.0, 150 mM NaCl, 7% glycerol; 15 min; labelled DNA 10.5 nM; gel in 100 mM Tris-borate; temperature not stated; conditions: protein: recombinant; tags: N-terminal 6xHisTEV removed by TEV protease; chain copies: 2; label: 5'-HEX on strand 1; 3' overhang 28 nt
experimental readout: Kd
Could you kindly put the unit after your number?

# Kd (binder: overhang (ov) (structured_DNA) DNA 1: AGTCTAGAGTGCAGTTGAGTCCTTGCTACGACGGATCCCTTAGGTCAG DNA 2: ACTCAACTGCACTCTAGACT ) is 30 nM
